- Test system: luciferase light signal from pIB29EL (yopE-luxAB)
- Protocol summary: microbe, parasite or virus in culture
- Format: cell-based, Yersinia pseudotuberculosis
- Cond: 50 μM; strain pIB29EL; Table 2C
Mark NOT MET for Inhibition (%) of the luciferase light signal values under 80%, and MET for everything at or above.

In [3]: df
Out[3]:
                         chemical_structure                               system_name  class_name
0  O=C(Nc1ccc([N+](=O)[O-])cc1Cl)c1cc(Cl)ccc1O  luciferase light signal from pIB29EL (yopE-luxAB)         MET
1  CC(=O)Oc1c(Cl)cc(Cl)c(Cl)c1C(=O)Nc1ccc(SC(F)(F)F)cc1  luciferase light signal from pIB29EL (yopE-luxAB)         MET
2        O=C(Nc1cc(Cl)ccc1F)c1cc(I)cc(I)c1O  luciferase light signal from pIB29EL (yopE-luxAB)         MET

# input Threshold query (Inhibition (%) of the luciferase light signal >= 80%) on O=C(Nc1ccc(Br)cc1)c1cc(I)ccc1O
# output NOT MET

* * *

- System: luciferase light signal from pIB102EL (yopE-luxAB, wild-type)
- Protocol summary: microbe, parasite or virus in culture
- Type: cell-based, Yersinia pseudotuberculosis
- Cond: 100 μM; strain pIB102EL; Table 2C
Recorded metric: Inhibition (%) of the luciferase light signal
Answer format: number, then unit.

Go through the items and report each one's Inhibition (%) of the luciferase light signal.
1. Nc1ccc(C(=O)N/N=C/c2c(O)ccc3ccccc23)cc1 [Compound 44]
2. O=C(N/N=C/c1ccc(O)cc1O)c1ccc([N+](=O)[O-])cc1 [Compound 38]
3. CC(=NNC(=O)c1cccnc1)c1cc(Br)cc(Br)c1O [Compound 39]
4. O=C(N/N=C/c1cc(Br)ccc1O)c1cccnc1 [Compound 42]
5. CCOc1cccc(/C=N/NC(=O)c2ccc(Cl)cc2)c1O [Compound 43]
6. O=C(N/N=C/c1cc(Cl)cc(Cl)c1O)c1ccccc1 [Compound 35]

# output
30%
36%
24%
59%
34%
43%

Go through the items and report each one's Inhibition (%) of the luciferase light signal.
1. Nc1ccc(C(=O)N/N=C/c2cc(I)cc(I)c2O)cc1 [Compound 40]
2. O=C(N/N=C/c1cc(I)cc(I)c1O)c1ccc([N+](=O)[O-])cc1 [Compound 41]
3. O=C(N/N=C/c1ccc(O)c(O)c1O)c1ccccc1 [Compound 36]

# output
50%
44%
54%

* * *

- Test system: luciferase light signal from pIB102EL (yopE-luxAB, wild-type)
- Protocol summary: microbe, parasite or virus in culture
- Format: cell-based, Yersinia pseudotuberculosis
- Cond: 20 μM; strain pIB102EL; Table 2C
Recorded metric: Inhibition (%) of the luciferase light signal
Answer format: number, then unit.

See these solved cases before continuing.
                      chemical_structure  measured_value
0  Nc1ccc(C(=O)N/N=C/c2cc(I)cc(I)c2O)cc1             18%
1  CC(=NNC(=O)c1cccnc1)c1cc(Br)cc(Br)c1O              4%
2   O=C(N/N=C/c1cc(Cl)cc(Cl)c1O)c1ccccc1              5%
3     O=C(N/N=C/c1ccc(O)c(O)c1O)c1ccccc1             15%
4  CCOc1cccc(/C=N/NC(=O)c2ccc(Cl)cc2)c1O             12%

Go through the items and report each one's Inhibition (%) of the luciferase light signal.
1. O=C(N/N=C/c1ccc(O)cc1O)c1ccc([N+](=O)[O-])cc1
2. O=C(N/N=C/c1cc(Br)ccc1O)c1cccnc1
3. Nc1ccc(C(=O)N/N=C/c2c(O)ccc3ccccc23)cc1

# output
1. 13%
2. 16%
3. 15%

# input GET /values?readout=Inhibition (%) of the luciferase light signal&item= O=C(N/N=C/c1cc(I)cc(I)c1O)c1ccc([N+](=O)[O-])cc1
# output 33%

* * *

Assign Inhibition (%) of the luciferase light signal to each entry below.
- System: luciferase light signal from pIB29EL (yopE-luxAB)
- Protocol summary: microbe, parasite or virus in culture
- Assay type: cell-based, Yersinia pseudotuberculosis
- Cond: 50 μM; strain pIB29EL; Table 2C
Answers are plain numbers, in %.

See these solved cases before continuing.
>>> print(df.to_string())
                         chemical_structure  measured_value
0      CC(=O)Oc1ccc(I)cc1C(=O)Nc1ccc(Cl)cc1              91
1        NC(=O)C(=O)N/N=C/c1cc(Br)cc(Br)c1O              32
2  O=C(Nc1cccc(Cl)c1)c1cc(Cl)ccc1NS(=O)(=O)c1cccc2nsnc12              49
3  CC(=O)Oc1ccc(Cl)cc1C(=O)Nc1ccc([N+](=O)[O-])cc1Cl              91
4  O=C(Nc1ccc(SC(F)(F)F)cc1)c1cc2cc(Br)ccc2c(Br)c1O              58
5         CC(=O)Oc1ccccc1C(=O)Nc1ccc(Cl)cc1              89

Go through the items and report each one's Inhibition (%) of the luciferase light signal.
1. O=C(Nc1ccccc1)c1cc(I)cc(I)c1O
2. O=C(Nc1ccc(Cl)cc1)c1ccccc1NS(=O)(=O)c1cccc2nsnc12
3. O=C(Nc1ccc(SC(F)(F)F)cc1)c1cccc(Cl)c1O

# output
[77, 11, 89]

* * *

Assign Inhibition (%) of the luciferase light signal to each entry below.
- System: luciferase light signal from pIB29EL (yopE-luxAB)
- Protocol summary: microbe, parasite or virus in culture
- Assay type: cell-based, Yersinia pseudotuberculosis
- Cond: 20 μM; pIB29EL; Table 2A
Give bare numbers, in %.

See these solved cases before continuing.
In [3]: df
Out[3]:
                         chemical_structure  measured_value
0    CC(=O)Oc1c(I)cc(I)cc1C(=O)Nc1ccc(F)cc1              42
1  CCCCCCc1cc(/C=N/NC(=O)c2ccc([N+](=O)[O-])cc2)c(O)cc1O              42
2  C=CCc1cccc(/C=N/NC(=O)c2ccc([N+](=O)[O-])cc2)c1O              49
3            O=C(N/N=C/c1cc(O)ccc1O)c1ccco1              16

Go through the items and report each one's Inhibition (%) of the luciferase light signal.
1. O=C(N/N=C/c1c(O)ccc2ccccc12)c1ccccc1
2. O=C(Nc1ccc(Cl)c(Cl)c1)c1cc(Cl)ccc1NS(=O)(=O)c1cccc2nsnc12
3. O=C(N/N=C/c1ccc(O)cc1O)c1cc2ccccc2cc1O
4. CC(=O)Oc1c(I)cc(I)cc1C(=O)Nc1ccccc1
5. O=C(N/N=C/c1cc(Br)cc(Br)c1O)c1ccc([N+](=O)[O-])cc1
6. O=C(N/N=C/c1cc(Br)cc(Br)c1O)c1cccnc1

# output
21
60
47
51
48
20

# input GET /values?readout=Inhibition (%) of the luciferase light signal&item= CC(=O)Oc1c(Br)cc(Br)cc1C(=O)Nc1ccccc1F
# output 0

* * *

- Test system: luciferase light signal from pIB29EL (yopE-luxAB)
- Protocol summary: microbe, parasite or virus in culture
- Assay type: cell-based, Yersinia pseudotuberculosis
- Cond: Yersinia pseudotuberculosis, read-out: Inhibition (%) of the luciferase light signal, 20 μM; strain pIB29EL; Table 2C
Mark Not satisfied for inhibition at 20 µM values under 20%, and Satisfied for everything at or above.

In [3]: df
Out[3]:
                                   compound     class_name
0  C/C(=N\NC(=O)c1ccc([N+](=O)[O-])cc1)c1cc(Br)cc(Br)c1O [Compound 21]  Not satisfied

# input Threshold query (inhibition at 20 µM >= 20%) on O=C(Nc1ccc(Cl)cc1)c1cc(I)cc(I)c1O [Compound 25]
# output Satisfied

# input Threshold query (inhibition at 20 µM >= 20%) on O=C(Nc1ccc(SC(F)(F)F)cc1)c1cc(I)cc(I)c1O [Compound 26]
# output Satisfied

# input Threshold query (inhibition at 20 µM >= 20%) on CC(=O)Oc1cc(C)ccc1C(=O)Nc1ccccc1F [Compound 30]
# output Satisfied

# input Threshold query (inhibition at 20 µM >= 20%) on CC(=O)Oc1c(I)cc(I)cc1C(=O)Nc1ccc(SC(F)(F)F)cc1 [Compound 33]
# output Satisfied

* * *

Assign Inhibition (%) of the luciferase light signal to each entry below.
- Tested on: luciferase light signal from pIB29EL (yopE-luxAB)
- Protocol summary: microbe, parasite or virus in culture
- Assay type: cell-based, Yersinia pseudotuberculosis
- Cond: 100 μM; pIB29EL; Table 2A
Numbers only, in %.

See these solved cases before continuing.
In [3]: df
Out[3]:
                         chemical_structure  measured_value
0       CC(=O)Oc1c(I)cc(I)cc1C(=O)Nc1ccccc1              62
1      O=C(N/N=C/c1c(O)ccc2ccccc12)c1ccccc1              49
2  CCCCCCc1cc(/C=N/NC(=O)c2ccc([N+](=O)[O-])cc2)c(O)cc1O              80
3            O=C(N/N=C/c1cc(O)ccc1O)c1ccco1              65
4  O=C(Nc1ccc(Cl)c(Cl)c1)c1cc(Cl)ccc1NS(=O)(=O)c1cccc2nsnc12              66

Here is another compound to look at.
# input GET /values?readout=Inhibition (%) of the luciferase light signal&item= O=C(N/N=C/c1cc(Br)cc(Br)c1O)c1cccnc1
# output 93
